This section presents binders with their documented FACS geometric mean fold change over Jurkat parental values.
# TARGET_DESC: T1, huCD33-G69 stably expressed on Jurkat cells (human, UniProt P20138 18-364)
# T1 construct: whole, on cells; >200,000 receptors per cell; also called CD33 Mutant; CD33 R69G
# MEASUREMENT_PROTOCOL: FACS on cells;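 note: fixed Jurkat lines probed with myc-tagged scFv periplasmic extracts, anti-myc PE flow cytometry, PE MFI fold binned − <2, + 2–10, ++ 10–30, +++ >30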

[in] State its FACS geometric mean fold change over Jurkat parental: Polypeptide No. 192 (scFv, V domains shown, scFv) VH: QVQLVQSGAEVKKPGASVKVSCKASGYTFTNYYMHWVRQAPGQGLEWMGWINPNSGDTNYEQKFQGRVTMTRDTSTSTVYMELSSLRSEDTAVYYCARDDRIQLWVPLVFWGQGTLVTVSS VL: DIQMTQSPSSLSASVGDRVTITCRASQGISNYLAWYQQKPGKAPKLLIYSASNLQSGVPSRFSGSGSGTDFTLTISSLQPEDFATYYCQQSFSTPFTFGQGTKLEIKR
[out] 10 to 30 fold

---
[in] Please report FACS geometric mean fold change over Jurkat parental for the following binder: Polypeptide No. 143 (scFv, V domains shown, scFv) VH: QVQLVQSGAEVKKPGASVKVSCKASGYTFTGYYMHWVRQAPGQGLEWMGWMNANSGNTGFAQKFQGRVTMTRDTSTSTVYMELSSLRSEDTAVYYCARDSSSWLSGGGWFDPWGQGTLVTVSS VL: DIQMTQSPSSLSASVGDRVTITCRASQSIGTYLSWYQQKPGKAPKLLIYAASSLQSGVPSRFSGSGSGTDFTLTISSLQPEDFATYYCQQSYSSPITFGQGTKLEIKR
[out] 2 to 10 fold

[in] # return recorded FACS geometric mean fold change over Jurkat parental for input Polypeptide No. 97 (scFv, V domains shown, scFv) VH: EVQLLESGGGLVQPGGSLRLSCAASGFTFRSYWMTWVRQAPGKGLEWVSVISGSGDNTYYADSVKGRFTISRDNSKNTLYLQMNSLRAEDTAVYYCARETTWGMDVWGQGTTVTVSS VL: DIQMTQSPSSLSASVGDRVTITCRASQSISSYLNWYQQKPGKAPKLLIYDASNLETGVPSRFSGSGSGTDFTLTISSLQPEDFATYYCQQSSIIPLTFGGGTKVEIKR
[out] 2 to 10 fold

[in] Note FACS geometric mean fold change over Jurkat parental for the binder shown: Polypeptide No. 125 (scFv, V domains shown, scFv) VH: QVQLVQSGAEVKKPGASVKVSCKASGYSFTTYDIHWVRQAPGQGLEWMGWMNPNSGNTGYAQKFQGRVTMTRDTSTSTVYMELSSLRSEDTAVYYCATDHWVLGGFDYWGQGTLVTVSS VL: DIQMTQSPSSLSASVGDRVTITCQASQDISNYLNWYQQKPGKAPKLLIYAASTLQSGVPSRFSGSGSGTDFTLTISSLQPEDFATYYCQQYSYLPVTFGQGTKLEIKR
[out] > 30 fold

[in] Could you please provide reported FACS geometric mean fold change over Jurkat parental for Polypeptide No. 104 (scFv, V domains shown, scFv) VH: EVQLLESGGGLVQPGGSLRLSCAASGFTFSSSWMHWVRQAPGKGLEWVAVISYDGSEEYYADSVKGRFTISRDNSKNTLYLQMNSLRAEDTAVYYCARLTDYGDYVLGRYLSDWGQGTLVTVSS VL: DIQMTQSPSSLSASVGDRVTITCRASQGISSYLAWYQQKPGKAPKLLIYAASSLQSGVPSRFSGSGSGTDFTLTISSLQPEDFATYYCQQSYSIPPTFGQGTKLEIKR ? Thanks!
[out] > 30 fold

Origin of the recorded values: patent US20240101668A1
